- Test system: CAKI-1 renal
- assayProtocol: NCI tumour cell line growth inhibition, 48 h
attributeMeasured: TGI

INSERT INTO assay_data (compound, systemundertest, measuredresult) VALUES
  ('CCOC(=O)C(=[N+]=[N-])C(=O)C[N+]12CCN(CC1)CC2', 'CAKI-1 renal', '> 100 µM'),
  ('CC(=O)Oc1c(-c2ccccc2)[nH]c2cc([N+](=O)[O-])c(/C(Cl)=C/c3ccccc3)cc12', 'CAKI-1 renal', '69.2 µM'),
  ('C=C1C(=O)O[C@@H]2[C@@H]3O[C@@](C)(CC/C=C(\C)CCC[C@@H]2C)[C@H](O)C[C@@H]13', 'CAKI-1 renal', '4.5 µM'),
  ('COC1OC(OC)C2C(c3c(C)cc(C)cc3C)=NOC12 (stereo unspecified)', 'CAKI-1 renal', '> 100 µM'),
  ('O=c1c2ccccc2oc2c1ccc1ncccc12', 'CAKI-1 renal', '34.5 µM'),
  ('CO/C(=N\N=C\c1ccc(Cl)cc1)c1ccncc1', 'CAKI-1 renal', '> 100 µM'),
  ('C=CCOc1ccc(C2c3c([nH][nH]c3=O)CC(O)(OCC)C2C(=O)OCC)cc1OC (stereo unspecified)', 'CAKI-1 renal', '> 100 µM'),
  ('CCCCNC(=S)Nn1c(-c2ccccc2)nc2ccccc2c1=O', 'CAKI-1 renal', '> 100 µM'),
  ('O=[N+]([O-])c1ccc2c(c1)nc(Cc1ccccc1)n2C[C@@H]1CCCN2CCCCC12 (stereo partly specified)', 'CAKI-1 renal', '> 100 µM'),
  ('Cc1cc2c(cc1-c1cc3c(cc1C)C(C(C)C)=C(O)C(=O)/C3=C\Nc1nc(-c3ccccc3)cs1)/C(=C/Nc1nc(-c3ccccc3)cs1)C(=O)C(O)=C2C(C)C', 'CAKI-1 renal', '> 100 µM'),
  ('O=C(O)CC(NC(=O)Nc1ccc([N+](=O)[O-])cc1)C(=O)Nc1ccc([N+](=O)[O-])cc1 (stereo unspecified)', 'CAKI-1 renal', '> 100 µM'),
  ('CCc1ccc(Cc2ccc(CC)c(NC(=O)C(=O)Cc3nc4ccccc4nc3C)c2CC)c(CC)c1NC(=O)C(=O)Cc1nc2ccccc2nc1C', 'CAKI-1 renal', '> 100 µM'),
  ('COc1cc(Oc2nc3ccccc3nc2C(=O)O)cc(OC)c1OC', 'CAKI-1 renal', '> 100 µM'),
  ('C[N+](C)(C)CC(=O)N/N=C(/C=C/c1ccccc1)CC1OC(=O)c2ccccc21 (stereo unspecified)', 'CAKI-1 renal', '> 100 µM'),
  ('CC1(C)C2CCC1(CS(=O)(=O)Nc1ccccc1)C(=O)C2 (stereo unspecified)', 'CAKI-1 renal', '> 100 µM'),
  ('N/C(=N\N=C\c1ccc2c(c1)OCO2)NO', 'CAKI-1 renal', '> 100 µM'),
  ('CCCC(Sc1nc(N)nc2nc[nH]c12)C(=O)O (stereo unspecified)', 'CAKI-1 renal', '> 100 µM'),
  ('C=C1C(=O)OC(CCCCCCCC)C1C(=O)O (stereo unspecified)', 'CAKI-1 renal', '34.9 µM'),
  ('CC(=O)Nc1ccc2c(C(=O)O)c(C)c(=O)[nH]c2n1', 'CAKI-1 renal', '> 100 µM'),
  ('Cc1cc2c(-c3nc4ccccc4[nH]3)c(O)c(O)cc2c(O)c1-c1c(C)cc2c(-c3nc4ccccc4[nH]3)c(O)c(O)cc2c1O', 'CAKI-1 renal', '0.628 µM'),
  ('CC1CN(CCO)CC(C)O1 (stereo unspecified)', 'CAKI-1 renal', '> 100 µM');

====

- Tested on: HT29 colon
- assayProtocol: NCI tumour cell line growth inhibition, 48 h
Listing: TGI of selected compounds
attributeMeasured: TGI

INSERT INTO measurements (compound, systemundertest, measuredresult) VALUES
  ('O=C(CCc1cccc(O)c1)NCCc1cccc(O)c1', 'HT29 colon', '> 100 µM'),
  ('Cc1c(C(=O)/C=C/c2ccco2)[n+](=O)c2ccccc2n1[O-]', 'HT29 colon', '> 100 µM'),
  ('CCOC(=O)c1cc2c(n1Cc1cccc(OC)c1)-c1oncc1CC2', 'HT29 colon', '15.8 µM'),
  ('O=S(=O)(c1cc(Cl)ccc1Cl)N1CCN(S(=O)(=O)c2cc(Cl)ccc2Cl)CC1', 'HT29 colon', '> 100 µM'),
  ('CCOC(=O)C(C(=O)c1ccccc1-c1ccccc1C(=O)O)=P(c1ccccc1)(c1ccccc1)c1ccccc1', 'HT29 colon', '> 100 µM'),
  ('O=C(CC1Sc2ccccc2NC1=O)Nc1cccc(Cl)c1 (configuration not stated)', 'HT29 colon', '> 100 µM'),
  ('O=C(CC(O)(c1ccccc1)c1ccc(Cl)cc1)NC(=O)c1ccccc1O (configuration not stated)', 'HT29 colon', '53 µM'),
  ('CN1CCC(O)C(CNC23CC4CC(CC(C4)C2)C3)C1 (configuration not stated)', 'HT29 colon', '> 100 µM'),
  ('CC1(C)O[C@H](C(=O)O)[C@@H](C(=O)O)O1', 'HT29 colon', '> 100 µM'),
  ('O=C1CCC/C=C\C[C@H]2C=C(Cl)C(=O)/C2=C/C[C@H](CCCCC(F)(F)F)OC(=O)CCC/C=C\C[C@H]2C=C(Cl)C(=O)/C2=C/C[C@H](CCCCC(F)(F)F)O1', 'HT29 colon', '0.807 µM'),
  ('CC(=O)NNc1nc(C)c(C(/C=C/c2ccc(/C=C/C(=N\NC(=O)c3ccncc3)c3sc(NNC(C)=O)nc3C)cc2)=N/NC(=O)c2ccncc2)s1', 'HT29 colon', '> 100 µM'),
  ('COC1CC(OC2OC(CO)C(O)C(O)C2O)/C(=C\C#N)C(O)C1OC (configuration not stated)', 'HT29 colon', '> 100 µM');

====

- System: COLO 205 colon
- assayProtocol: NCI tumour cell line growth inhibition, 48 h
attributeMeasured: TGI (µM)

INSERT INTO measurements (compound, resultoperator, measuredresult) VALUES
  ('COC(=O)C1=C(C)N2CCCOC2(C)C(C(=O)OC)C1c1cccc(Cl)c1 (stereo unspecified)', '=', 37.9),
  ('CC(=O)OC1COC(N2C(=O)C(=O)c3c(C)cc(Cl)nc32)C(OC(C)=O)C1OC(C)=O (stereo unspecified)', '>', 100),
  ('COc1cc2c(cc1OCCCC(=O)Nc1cc(C(=O)Nc3cc(C(=O)Nc4cc(C(=O)NCCCN(C)C)n(C)c4)n(C)c3)n(C)c1)N=C[C@@H]1CCCN1C2=O', '=', 3.15),
  ('CCOC(=O)C(C(=O)c1ccccc1-c1ccccc1C(=O)O)=P(c1ccccc1)(c1ccccc1)c1ccccc1', '=', 40.6),
  ('CN(C)N=Nc1ccc([N+](=O)[O-])cc1C(N)=O', '>', 100),
  ('O=C(Nc1ccc(Cl)cc1)NS(=O)(=O)c1ccc2c(c1)CCC2', '>', 60.8),
  ('O=C(Nc1ccc(Cl)c(Cl)c1)Nc1ccc(Cl)c([N+](=O)[O-])c1', '=', 4.9),
  ('COCn1c2ccc(OC(C)=O)cc2c2c(=O)oc(C)nc21', '>', 100),
  ('COC1CCC(=C2C(=O)OC(C)(C)OC2=O)N1 (stereo unspecified)', '>', 100),
  ('Cc1c(-c2ccccc2)c(C#N)c2nnn(-c3ccccc3)c(=O)n12', '>', 100),
  ('CCOC(=O)c1cc2c(n1Cc1cccc(OC)c1)-c1oncc1CC2', '=', 3.99),
  ('CC(=O)NC1(C)CCC(C(C)(C)NC(C)=O)CC1 (stereo unspecified)', '>', 100),
  ('O=C(NCC1Nc2ccncc2S(=O)(=O)N1)c1ccc(Br)cc1 (stereo unspecified)', '>', 100),
  ('O=C(CCCCCCc1nc2ccc(Br)cc2[nH]1)NO', '=', 5.07),
  ('O=S(=O)(c1ccccc1)n1c(C(O)c2ccncc2)cc2ccccc21 (stereo unspecified)', '>', 100),
  ('C=CCOc1ccc(C2c3c([nH][nH]c3=O)CC(O)(OCC)C2C(=O)OCC)cc1OC (stereo unspecified)', '>', 100),
  ('CCc1nc(N)nc(N)c1-c1ccc(Cl)cc1', '>', 100),
  ('COC(=O)C1=CC(=O)C(C(=O)Nc2ccc(OC)cc2)C(c2ccccc2)O1 (stereo unspecified)', '>', 100),
  ('c1ccc2c(c1)c1c(n2CCOCCN2CCCCC2)CCCC1', '=', 26),
  ('CC1(C)CCC[C@]2(C)[C@@H]1CC[C@@]13O[C@@H]1C1=C(CO)C(=O)O[C@]14O[C@@H]4[C@@H]23', '=', 40.3),
  ('CC/C(Cl)=N\OC(=O)Nc1ccc(OC)cc1', '=', 3.92);
